- System: A2058
- procedure-details: WST-1 cell proliferation assay (Example 2)
- Type: cell-based
- measurement-setup: Homo sapiens, A2058, 48 h; read-out: IC50
- Method: Cell viability was determined using the WST-1 cell proliferation assay. Data are means±s.d. (n=3). FIG. 7B: Long-term colony formation assay of the indicated cell lines. […] Cell viability was determined using the WST-1 cell proliferation assay. […] The Bliss index was calculated as the ratio Observed/Expected where an index=1, […] and >1 indicates additive, antagonistic and synergistic effects, respectively. Cell proliferation was measured using a WST-1 reagent (Roche Applied Science, IN, USA). […]

- compound: "CCCS(=O)(=O)Nc1ccc(F)c(C(=O)c2c[nH]c3ncc(-c4ccc(Cl)cc4)cc23)c1F [Vemurafenib]"
  IC50: "2.4 µM"
- compound: "O=C(NOC[C@H](O)CO)c1ccc(F)c(F)c1Nc1ccc(I)cc1F [PD 0325901]"
  IC50: "0.033 µM"

* * *

Below is a list of entries, each paired with its recorded IC50 value.
- Test system: Mel10
- procedure-details: WST-1 cell proliferation assay (Example 2)
- Format: cell-based
- measurement-setup: MEL10, 48 h; read-out: IC50

- molecule: "O=C(O)C(Cc1ccccc1[N+](=O)[O-])=NNc1nc(-c2ccc(Cl)c(Cl)c2)cs1 (mixture of isomers)"
  tested-on: "Mel10"
  relation: ">"
  IC50 (µM): 100
- molecule: "CCCS(=O)(=O)Nc1ccc(F)c(C(=O)c2c[nH]c3ncc(-c4ccc(Cl)cc4)cc23)c1F"
  tested-on: "Mel10"
  relation: ">"
  IC50 (µM): 10
- molecule: "O=C(NOC[C@H](O)CO)c1ccc(F)c(F)c1Nc1ccc(I)cc1F"
  tested-on: "Mel10"
  relation: "="
  IC50 (µM): 0.003
- molecule: "Nc1ncnc2n[nH]c(Nc3ccc(F)cc3)c12"
  tested-on: "Mel10"
  relation: "="
  IC50 (µM): 28

* * *

- System: Mel624
- procedure-details: WST-1 cell proliferation assay (Example 2)
- Format: cell-based
- measurement-setup: Mel624, 48 h; read-out: IC50
pIC50: −log10 of the molar value.

- compound: "Nc1ncnc2n[nH]c(Nc3ccc(F)cc3)c12"
  relation: "<"
  pIC50: 4.00
- compound: "O=C(NOC[C@H](O)CO)c1ccc(F)c(F)c1Nc1ccc(I)cc1F"
  relation: "="
  pIC50: 7.02
- compound: "CCCS(=O)(=O)Nc1ccc(F)c(C(=O)c2c[nH]c3ncc(-c4ccc(Cl)cc4)cc23)c1F"
  relation: "="
  pIC50: 5.70
- compound: "O=C(O)C(Cc1ccccc1[N+](=O)[O-])=NNc1nc(-c2ccc(Cl)c(Cl)c2)cs1 (mixture of isomers)"
  relation: "="
  pIC50: 4.59

* * *

- Test system: Mel10
- procedure-details: WST-1 cell proliferation assay (Example 2)
- Assay type: cell-based
- measurement-setup: 48 h
pIC50: −log10 of the molar value.

- smiles-code: "COC(=O)[C@H]1[C@@H](O)[C@@]2(O)c3c(OC)cc(O[C@@H]4O[C@@H]([C@H](O)CO)CO[C@H]4OC)cc3O[C@@]2(c2ccc(OC)cc2)[C@@H]1c1ccccc1"
  pIC50: 7.34
